FYI, the data here is from patent US20260083865A1.

Parameter: Kd. Scope: all listed entries.
- tested_on: Fc-fusion protein of human PSMA (hPSMA-Fc) (Homo sapiens, UniProt Q04609)
- Construct: purchased Acro Biosystems PSA-H5264
- Sequence (Q04609 44-750 limits assumed): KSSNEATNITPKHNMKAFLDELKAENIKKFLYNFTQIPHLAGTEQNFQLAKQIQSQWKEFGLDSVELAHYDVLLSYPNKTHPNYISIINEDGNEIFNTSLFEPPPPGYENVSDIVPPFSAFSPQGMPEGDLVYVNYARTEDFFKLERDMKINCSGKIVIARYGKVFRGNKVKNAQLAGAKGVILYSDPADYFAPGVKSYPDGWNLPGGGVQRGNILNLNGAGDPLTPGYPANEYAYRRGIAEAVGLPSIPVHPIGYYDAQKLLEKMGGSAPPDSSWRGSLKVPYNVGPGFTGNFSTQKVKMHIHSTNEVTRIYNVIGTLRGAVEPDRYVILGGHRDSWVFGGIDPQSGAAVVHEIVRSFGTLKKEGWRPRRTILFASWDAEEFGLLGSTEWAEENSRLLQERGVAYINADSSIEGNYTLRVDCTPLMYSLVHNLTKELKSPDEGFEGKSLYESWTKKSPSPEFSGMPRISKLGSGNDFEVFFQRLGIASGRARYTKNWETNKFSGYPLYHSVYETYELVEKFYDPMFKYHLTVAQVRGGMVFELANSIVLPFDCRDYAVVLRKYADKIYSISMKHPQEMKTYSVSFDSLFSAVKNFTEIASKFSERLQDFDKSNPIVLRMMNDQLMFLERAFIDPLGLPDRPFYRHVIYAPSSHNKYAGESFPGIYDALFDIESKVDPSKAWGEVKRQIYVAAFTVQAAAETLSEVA
- test_name: Surface plasmon resonance assay (Biacore T200, single cycle kinetic)
- Type: binding
- setup_conditions: pKD category for PSMA SPR activity assay, hPSMA-Fc, 25° C.; read-out: pKD CAT (converted)
- Description: Surface plasmon resonance (SPR) studies were performed using a Biacore™ T200 SPR system. Briefly, polarized light is directed towards a gold-labeled sensor surface, and minimum intensity reflected light is detected. […] For each test compound, SPR raw data in the form of resonance units (RU) were plotted as sensorgrams using the Biacore™ T200 control software. […] The pKD value (negative decadic logarithm of dissociation constant) was calculated using Microsoft Excel.
Numbered stars: 1 amine (or outer) side, 2 acyl side, 3 side chain; on linkers, the order of the positions; unused ones are H or OH. Bridge positions count the residues as written; N and C are the ends. Square brackets hold non-standard residues; d marks the D form. Side chains are listed from the residue outwards. Peptide text beside a SMILES is read from it. * marks the point of attachment. DOTA = O=C(O)CN1CCN(CC(=O)O)CCN(CC(=O)*)CCN(CC(=O)O)CC1; Phe(4-CF3) = N[C@@H](Cc1ccc(C(F)(F)F)cc1)C(=O)O; Tyr(3-I) = N[C@@H](Cc1ccc(O)c(I)c1)C(=O)O; Phe(4-Cl) = N[C@@H](Cc1ccc(Cl)cc1)C(=O)O; Arg(Me) = CNC(=N)NCCC[C@H](N)C(=O)O; Ethylenediamine = C(CN[*:2])N[*:1]; X1 = O=C(CC1CCN([*:1])CC1)[*:2]; Lys(Me) = CNCCCC[C@H](N)C(=O)O; Tle = CC(C)(C)[C@H](N)C(=O)O; 4Amb = NCc1ccc(C(=O)O)cc1; αMeS = C[C@](N)(CO)C(=O)O; Deg = CCC(N)(CC)C(=O)O; Aib = CC(C)(N)C(=O)O

| compound | Kd |
| --- | --- |
| CC(=O)N[C@H](C(=O)NC(C)(C)C(=O)N[C@@H](Cc1ccc(Cl)cc1)C(=O)N[C@H]1CSSC[C@@H](C(=O)N[C@H](C(=O)NCCN)C(C)(C)C)NC(=O)[C@H](CC(N)=O)NC(=O)C(C)(C)NC(=O)[C@H](CCCNC(=N)N)NC(=O)[C@H](CCCCN)NC1=O)[C@@H](C)O [PSM-0393] (Ac-T[Aib][Phe(4-Cl)]CKR[Aib]NC[Tle]-Ethylenediamine; disulfide 4-9) | < 12.6 nM |
| CNCCCC[C@@H]1NC(=O)[C@@H](NC(=O)[C@H](Cc2ccc(O)c(I)c2)NC(=O)C(C)(C)NC(=O)[C@@H](NC(C)=O)[C@@H](C)O)CSSC[C@@H](C(=O)N[C@H](C(=O)N[C@H](C(N)=O)[C@@H](C)O)C(C)(C)C)NC(=O)[C@H](CC(N)=O)NC(=O)C(C)(C)NC(=O)[C@H](CCCNC(=N)NC)NC1=O [PSM-0387] (Ac-T[Aib][Tyr(3-I)]C[Lys(Me)][Arg(Me)][Aib]NC[Tle]T-NH2; disulfide 4-9) | > 501 nM |
| CNCCCC[C@@H]1NC(=O)[C@@H](NC(=O)[C@H](Cc2ccc(C(F)(F)F)cc2)NC(=O)C(C)(C)NC(=O)[C@@H](NC(=O)CC2CCN(C(=O)CN3CCN(CC(=O)O)CCN(CC(=O)O)CCN(CC(=O)O)CC3)CC2)[C@@H](C)O)CSSC[C@@H](C(=O)N[C@H](C(N)=O)C(C)(C)C)NC(=O)[C@H](CC(N)=O)NC(=O)C(C)(C)NC(=O)[C@H](CCCNC(=N)NC)NC1=O [PSM-0549] ({DOTA}-[X1]T[Aib][Phe(4-CF3)]C[Lys(Me)][Arg(Me)][Aib]NC[Tle]-NH2; disulfide 5-10) | 12.6 to 126 nM |
| CC(=O)N[C@H](C(=O)NC(C)(C)C(=O)N[C@@H](Cc1ccccc1)C(=O)N[C@H]1CSSC[C@@H](C(=O)N[C@H](C(=O)N[C@H](C(N)=O)[C@@H](C)O)C(C)(C)C)NC(=O)[C@H](CC(N)=O)NC(=O)[C@H](CCCCNC(=O)c2ccc(CNC(=O)CN3CCN(CC(=O)O)CCN(CC(=O)O)CCN(CC(=O)O)CC3)cc2)NC(=O)[C@H](CCCNC(=N)N)NC(=O)[C@H](CCCCN)NC1=O)[C@@H](C)O [PSM-0419] (Ac-T[Aib]FCKRK([4Amb-DOTA])NC[Tle]T-NH2; disulfide 4-9) | < 12.6 nM |
| CC(=O)N[C@H](C(=O)NC(C)(C)C(=O)N[C@@H](Cc1ccc(Cl)cc1)C(=O)N[C@H]1CSSC[C@@H](C(=O)N[C@H](C(=O)N[C@H](C(=O)O)[C@@H](C)O)C(C)(C)C)NC(=O)[C@H](CC(N)=O)NC(=O)C(C)(C)NC(=O)[C@H](CCCNC(=N)N)NC(=O)[C@H](CCCCN)NC1=O)[C@@H](C)O [PSM-0493] (Ac-T[Aib][Phe(4-Cl)]CKR[Aib]NC[Tle]T-OH; disulfide 4-9) | < 12.6 nM |
| CC(=O)N[C@H](C(=O)NC(C)(C)C(=O)N[C@@H](Cc1ccccc1)C(=O)N[C@H]1CSSC[C@@H](C(=O)N[C@H](C(=O)N[C@H](C(N)=O)[C@@H](C)O)C(C)(C)C)NC(=O)[C@@H](CC(N)=O)NC(=O)C(C)(C)NC(=O)[C@H](CCCNC(=N)N)NC(=O)[C@H](CCCCN)NC1=O)[C@@H](C)O [PSM-0402] (Ac-T[Aib]FCKR[Aib][dN]C[Tle]T-NH2; disulfide 4-9) | < 12.6 nM |
| CC(=O)N1CCC(CC(=O)N[C@H](C(=O)NC(C)(C)C(=O)N[C@@H](Cc2ccc(Cl)cc2)C(=O)N[C@H]2CSSC[C@@H](C(=O)N[C@H](C(=O)NCCNC(=O)CN3CCN(CC(=O)O)CCN(CC(=O)O)CCN(CC(=O)O)CC3)C(C)(C)C)NC(=O)[C@H](CC(N)=O)NC(=O)C(C)(C)NC(=O)[C@H](CCCNC(=N)N)NC(=O)[C@H](CCCCN)NC2=O)[C@@H](C)O)CC1 [PSM-0379] (Ac-[X1]T[Aib][Phe(4-Cl)]CKR[Aib]NC[Tle]-{Ethylenediamine-DOTA}; disulfide 5-10) | < 12.6 nM |
| C[C@@H](O)[C@H](NC(=O)[C@@H](NC(=O)[C@@H]1CSSC[C@H](NC(=O)[C@H](Cc2ccc(Cl)cc2)NC(=O)C(C)(C)NC(=O)[C@@H](NC(=O)CC2CCN(C(=O)CN3CCN(CC(=O)O)CCN(CC(=O)O)CCN(CC(=O)O)CC3)CC2)[C@@H](C)O)C(=O)N[C@@H](CCCCN)C(=O)N[C@@H](CCCNC(=N)N)C(=O)N[C@@](C)(CO)C(=O)N[C@@H](CC(N)=O)C(=O)N1)C(C)(C)C)C(N)=O [PSM-0382] ({DOTA}-[X1]T[Aib][Phe(4-Cl)]CKR[αMeS]NC[Tle]T-NH2; disulfide 5-10) | < 12.6 nM |
| CCC1(CC)NC(=O)[C@H](CCCNC(=N)N)NC(=O)[C@H](CCCCN)NC(=O)[C@@H](NC(=O)[C@H](Cc2ccccc2)NC(=O)C(C)(C)NC(=O)[C@@H](NC(C)=O)[C@@H](C)O)CSSC[C@@H](C(=O)N[C@H](C(=O)N[C@H](C(N)=O)[C@@H](C)O)C(C)(C)C)NC(=O)[C@H](CC(N)=O)NC1=O [PSM-0375] (Ac-T[Aib]FCKR[Deg]NC[Tle]T-NH2; disulfide 4-9) | < 12.6 nM |
| CC(=O)N[C@H](C(=O)NC(C)(C)C(=O)N[C@@H](Cc1ccccc1)C(=O)N[C@H]1CSSC[C@@H](C(=O)N[C@H](C(=O)N[C@@H](CCC(N)=O)C(N)=O)C(C)(C)C)NC(=O)[C@H](CC(N)=O)NC(=O)C(C)(C)NC(=O)[C@H](CCCNC(=N)N)NC(=O)[C@H](CCCCN)NC1=O)[C@@H](C)O [PSM-0540] (Ac-T[Aib]FCKR[Aib]NC[Tle]Q-NH2; disulfide 4-9) | < 12.6 nM |
